System: Bacillus subtilis
Assay: Antibacterial activity against Bacillus subtilis ATCC 6633 after 24 hrs by MTT assay
Type: functional
Conditions: ATCC 6633, 24 h
measurement.kind: MIC (µg/mL)
Answers are plain numbers, in µg/mL.

Below, 6 compounds whose answers are already recorded.
- O=C(Nc1cccc2cccnc12)N1CCOCC1: 38.7
- CC1(C)S[C@@H]2[C@H](NC(=O)Cc3ccccc3)C(=O)N2[C@H]1C(=O)O: 1.6
- CCN(CC)C(=O)Nc1ccccc1F: 12.5
- O=C(Nc1ccc2c(c1)Cc1ccccc1-2)N1CCOCC1: 40.2
- CCN(CC)C(=O)Nc1ccc(F)cc1: 6.2
- CCN(CC)C(=O)Nc1ccc(F)cc1F: 12.5

Fill in MIC for each of the 3 compounds listed.
1. O=C(Nc1ccccc1Cl)N1CCOCC1
2. NC[C@H]1O[C@H](O[C@H]2[C@H](O)[C@@H](O[C@H]3O[C@H](CO)[C@@H](O)[C@H](N)[C@H]3O)[C@H](N)C[C@@H]2N)[C@H](O)[C@@H](O)[C@@H]1O
3. O=C(Nc1ccccc1F)N1CCOCC1

## Output
1: 3.1; 2: 0.4; 3: 1.6

---

For each of the compounds below, state its MIC.
System: Escherichia coli
Assay: Antibacterial activity against Escherichia coli ATCC 35218 after 24 hrs by MTT assay
Assay type: functional
Conditions: ATCC 35218, 24 h

Worked cases, MIC given:
* O=C(Nc1cccc2cccnc12)N1CCOCC1 | > 50 µg/mL
* O=C(N1CCOCC1)N1CCCc2ccccc21 | > 50 µg/mL

Please find the next compound below.
## Input Form entry - test system: Escherichia coli; read-out: MIC; compound: `O=C(Nc1ccc2c(c1)Cc1ccccc1-2)N1CCOCC1`
## Output > 50 µg/mL
